Overview of recorded IC50 for various molecules
system: Nav 1.7 (Homo sapiens, UniProt Q15858)
Construct: expressed in transfected cells
Sequence (Q15858 whole entry): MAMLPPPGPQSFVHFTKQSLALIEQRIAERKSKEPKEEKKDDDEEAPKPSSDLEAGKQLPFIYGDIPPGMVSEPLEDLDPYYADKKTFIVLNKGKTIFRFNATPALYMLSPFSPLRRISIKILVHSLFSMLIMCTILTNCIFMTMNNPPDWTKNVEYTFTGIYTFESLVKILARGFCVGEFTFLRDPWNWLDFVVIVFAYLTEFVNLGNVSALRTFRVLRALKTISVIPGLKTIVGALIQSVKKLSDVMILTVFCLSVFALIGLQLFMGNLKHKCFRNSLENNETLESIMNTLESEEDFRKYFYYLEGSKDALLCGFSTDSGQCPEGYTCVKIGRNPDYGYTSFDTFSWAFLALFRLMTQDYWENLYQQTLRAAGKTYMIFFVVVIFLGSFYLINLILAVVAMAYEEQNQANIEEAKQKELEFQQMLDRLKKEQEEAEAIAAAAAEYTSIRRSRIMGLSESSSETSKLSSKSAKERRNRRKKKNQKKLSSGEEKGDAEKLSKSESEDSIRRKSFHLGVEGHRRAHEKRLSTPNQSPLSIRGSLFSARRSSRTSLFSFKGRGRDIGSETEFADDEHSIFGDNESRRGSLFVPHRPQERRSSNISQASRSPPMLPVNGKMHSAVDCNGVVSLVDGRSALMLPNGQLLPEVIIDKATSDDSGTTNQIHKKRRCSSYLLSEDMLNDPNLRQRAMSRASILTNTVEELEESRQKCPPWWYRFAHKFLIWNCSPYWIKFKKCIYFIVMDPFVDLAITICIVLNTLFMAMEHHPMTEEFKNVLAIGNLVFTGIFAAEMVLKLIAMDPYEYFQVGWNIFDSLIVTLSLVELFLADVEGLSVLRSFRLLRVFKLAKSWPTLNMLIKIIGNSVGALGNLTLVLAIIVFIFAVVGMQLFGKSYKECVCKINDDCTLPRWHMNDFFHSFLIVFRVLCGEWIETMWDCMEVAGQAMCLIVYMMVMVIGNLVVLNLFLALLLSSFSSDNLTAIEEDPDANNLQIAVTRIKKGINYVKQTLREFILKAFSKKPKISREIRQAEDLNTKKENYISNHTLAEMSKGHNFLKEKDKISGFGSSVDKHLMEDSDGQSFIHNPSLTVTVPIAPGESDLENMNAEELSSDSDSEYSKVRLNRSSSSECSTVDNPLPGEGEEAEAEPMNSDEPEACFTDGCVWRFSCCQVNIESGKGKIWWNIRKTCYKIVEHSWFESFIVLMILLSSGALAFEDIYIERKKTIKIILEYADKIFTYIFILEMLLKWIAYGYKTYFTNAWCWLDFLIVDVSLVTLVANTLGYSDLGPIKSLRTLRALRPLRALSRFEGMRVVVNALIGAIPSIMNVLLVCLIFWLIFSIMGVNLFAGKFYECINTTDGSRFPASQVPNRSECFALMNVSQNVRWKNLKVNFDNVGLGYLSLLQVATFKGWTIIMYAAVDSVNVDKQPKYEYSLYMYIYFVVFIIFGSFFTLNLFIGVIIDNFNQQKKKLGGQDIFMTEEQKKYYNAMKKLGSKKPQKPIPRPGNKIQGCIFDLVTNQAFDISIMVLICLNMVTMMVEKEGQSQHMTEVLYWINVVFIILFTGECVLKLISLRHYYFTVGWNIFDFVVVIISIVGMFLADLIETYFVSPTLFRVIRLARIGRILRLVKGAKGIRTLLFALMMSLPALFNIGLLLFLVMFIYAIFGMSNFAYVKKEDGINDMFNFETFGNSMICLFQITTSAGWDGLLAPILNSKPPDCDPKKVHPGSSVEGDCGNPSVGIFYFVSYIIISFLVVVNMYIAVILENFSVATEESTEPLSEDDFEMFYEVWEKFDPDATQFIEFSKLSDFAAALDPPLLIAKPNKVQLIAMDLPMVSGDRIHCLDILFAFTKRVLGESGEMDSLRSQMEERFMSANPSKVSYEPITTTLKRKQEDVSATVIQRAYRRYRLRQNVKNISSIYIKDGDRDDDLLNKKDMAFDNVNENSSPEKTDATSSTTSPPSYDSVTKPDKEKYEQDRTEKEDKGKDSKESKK
protocol details: Whole-cell voltage clamp electrophysiology, automated patch clamp (marker c in Table of Examples)
Assay type: cell-based
test settings: marker c = Automated patch clamp data; read-out: Nav 1.7 activity
Where a name gives a salt, the structure may show the parent alone.
Give the quantity in nM, number only.

| molecule | system | test readout | measurement units | recorded value |
| --- | --- | --- | --- | --- |
| CN(c1cccc(Cl)c1)c1nc(N)nc(-c2noc(-c3ncccc3F)n2)n1 | Nav 1.7 (Homo sapiens, UniProt Q15858) | IC50 | nM | 478 |

Q: Please look at this molecule and report its IC50: CN(c1ccccc1)c1nc(N)nc(-c2noc([C@H]3CCCN3)n2)n1 [Example 439, hydrochloride]
Result: 4060

Q: Return IC50 for the following molecule: CC(C)Nc1ccc(-c2nc(-c3nc(N)nc(N(C)c4ccccc4)n3)no2)cn1
Result: 1110

Q: Retrieve IC50 measured for CN(c1ccccc1)c1nc(N)nc(-c2noc(-c3ccc(CNC4CCC4)nc3)n2)n1 and print it.
Result: 619

Q: In one line, give reported IC50 of the entry CC(OCc1ccc(-c2nc(-c3nc(N)nc(Nc4ccccc4)n3)no2)cn1)C(F)(F)F (centres unmarked) .
Result: 33

Q: Read the entry CC(=O)c1ccc(-c2nc(-c3nc(N)nc(N(C)c4ccccc4)n3)no2)cn1 and write its reported IC50.
Result: 746

Q: Specify IC50 for CN(c1nc(N)nc(-c2noc(-c3ccc(OCC(F)(F)F)nc3)n2)n1)c1ccccc1F and stop.
Result: 139

Q: Fill in reported IC50 for this entry: CC(OCC(F)(F)F)c1ccc(-c2nc(-c3nc(N)nc(Nc4ccccc4)n3)no2)cn1 (centres unmarked)
Result: 211
